Tested on: serum HDL cholesterol
experiment: in vivo test procedure measuring elevation of HDL cholesterol levels in cholesterol/cholic acid-fed rats
Design: species or system Male Sprague-Dawley rats
conditionSummary: Rattus norvegicus, feed or water, 192 h; rats fed diet with 0.25% cholic acid and 1.0% cholesterol; 100 mg/kg/day in diet for 8 days; serum HDL cholesterol by FPLC; read-out: HDL Cholesterol Level Increase (%)
Simple rule here: change in vivo at 100 mg/kg/day less than 80% is 1, otherwise -1.

# compound, qualitativeLabel
data = [
    ("Cc1ccc(Cl)cc1NC(=S)Nc1cc[nH]n1 [Example 7]", -1),
    ("Cc1ccc(Cl)cc1NC(=S)Nc1nc2ccccc2s1 [Example 2]", 1),
    ("CS/C(=N/c1c(C)nn(C)c1C)Nc1cc(Cl)ccc1C [Example 20]", 1),
    ("Cc1coc(NC(=S)Nc2cc(Cl)ccc2C)n1 [Example 4]", -1),
    ("Cc1ccc(Cl)cc1NC(=S)Nc1c(C)nn(C)c1C [Example 8]", -1),
    ("Cc1cc(NC(=S)Nc2cc(Cl)ccc2C)sn1 [Example 12]", -1),
    ("Cc1cccc(Cl)c1NC(=S)Nc1c(C)nn(C)c1C [Example 15]", 1),
]

Now, please, on to the next compound.
Ask: Just wondering, is change in vivo at 100 mg/kg/day of Cc1ccc(Cl)cc1NC(=S)Nc1ccn(C)n1 [Example 6] below 80%?
Result: 1
